test: gradient 5% acetonitrile 3 min, to 50% in 2 min, to 85% in 15 min, held 3 min, 100 µL/min; details: column: Zorbax Extend-C18 2.1 x 50 mm; eluents: water / acetonitrile, 0.1% formic acid
Measure: RP-LC retention time

CCOc1nc2ccccc2nc1N1CCCC(C(=O)N2CCN(c3ccccc3OC)CC2)C1 (stereo not given)    1250 s
CCCc1noc(-c2cccnc2N2CCCN(Cc3ccc(F)cc3Cl)CC2)n1    748 s
Cc1cc(C(=O)Nc2ccc(C)c(C)c2)n(-c2ccccc2)n1    961 s
Cc1ccc(NC(=O)C2CCN(S(=O)(=O)c3cc(C(=O)N4CCCC4)n(C)c3)CC2)nc1    647 s

Problem: GET /values?readout=RP-LC retention time&item= `COc1ccc(F)cc1S(=O)(=O)NCC1(C)CCOCC1`
Result: 785 s

Problem: What do you get for `O=C(CN1CCN(c2ccccc2F)C1=O)Nc1ccc(OC(F)(F)F)cc1` ?
Result: 855 s

Problem: Next record, please: `Brc1ccc(-c2ccc(CNCc3ccccn3)o2)cc1`
Result: 703 s

Problem: How about CCC1(C(=O)NCc2ccc(Cl)cc2)CCCCC(=O)N1 (stereo not given) ?
Result: 738 s

Problem: Further, for `COc1ccc(Nc2ccc3c(=O)c(-c4ccccc4OC)coc3c2)c(OC)c1` ?
Result: 940 s

Problem: Same for CNC(=O)N1CCCC(c2nc(CCOCC3CCCC3)no2)C1 (stereo not given)
Result: 759 s

Problem: // repeat for `COc1cc(C(=O)Nc2nc(-c3ccc4c(c3)N(C)C(=O)CO4)cs2)cc(OC)c1OC` and report
Result: 860 s

Problem: Now consider `CCNC(=O)C1CCN(c2nc3ccc(-c4ccsc4)nc3s2)CC1` .
Result: 799 s

Problem: Next compound up: `Cc1ccc(NS(=O)(=O)c2cc(-c3[nH]ncc3C(=O)N3CCCC3)oc2C)cc1F`
Result: 741 s
